src = patent US20090010874A1

The binders listed here are annotated with their IC50 (nM), primary T cell blast proliferation to IL-4.
Molecular target: T1, human IL-4 receptor alpha chain on cells (TF-1 cells, primary human T-cell blasts and B cells) (human, UniProt P24394 26-825)
T1 sequence (looked up): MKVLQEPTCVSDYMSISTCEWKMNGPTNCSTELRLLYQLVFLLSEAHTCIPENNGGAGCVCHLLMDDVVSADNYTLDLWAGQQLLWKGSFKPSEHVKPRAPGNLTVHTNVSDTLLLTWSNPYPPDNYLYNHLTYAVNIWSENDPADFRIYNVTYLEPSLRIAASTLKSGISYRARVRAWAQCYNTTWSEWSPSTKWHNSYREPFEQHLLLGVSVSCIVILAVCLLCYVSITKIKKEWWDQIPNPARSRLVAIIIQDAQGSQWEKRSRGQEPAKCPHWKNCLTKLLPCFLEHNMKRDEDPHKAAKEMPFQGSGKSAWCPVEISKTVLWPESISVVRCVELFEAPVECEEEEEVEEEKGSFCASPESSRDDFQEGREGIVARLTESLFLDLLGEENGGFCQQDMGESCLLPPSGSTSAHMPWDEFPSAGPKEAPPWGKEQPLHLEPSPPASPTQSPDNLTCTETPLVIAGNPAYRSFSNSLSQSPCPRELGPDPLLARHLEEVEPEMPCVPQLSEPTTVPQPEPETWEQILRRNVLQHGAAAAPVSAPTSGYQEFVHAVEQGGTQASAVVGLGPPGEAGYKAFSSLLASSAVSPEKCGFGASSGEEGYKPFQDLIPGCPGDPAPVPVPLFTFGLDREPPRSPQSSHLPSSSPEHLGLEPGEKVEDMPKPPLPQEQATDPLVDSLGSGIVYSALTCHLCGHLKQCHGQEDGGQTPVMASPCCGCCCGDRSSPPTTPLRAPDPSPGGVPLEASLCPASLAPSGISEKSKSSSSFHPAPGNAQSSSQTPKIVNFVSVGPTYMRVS
Test: cell-based or functional assay
MEASUREMENT_TYPE: IC50 (nM), primary T cell blast proliferation to IL-4

IL4-RE-T13D (T13D/R121D/Y124D), unPEGylated (ligand) MHKCDITLQEIIKDLNSLTEQKTLCTELTVTDIFAASKNTTEKETFCRAATVLRQFYSHHEKDTRCLGATAQQFHRHKQLIRFLKRLDRNLWGLAGLNSCPVKEANQSTLENFLERLKTIMDEKDSKCSS    0.714 nM
IL-4TM-A104C (R121D/Y124D/A104C) PEGylated with 30 kDa linear maleimide-PEG (ligand, 30 kDa linear maleimide-PEG on Cys 104 (numbered according to wild type IL-4)) MHKCDITLQEIIKTLNSLTEQKTLCTELTVTDIFAASKNTTEKETFCRAATVLRQFYSHHEKDTRCLGATAQQFHRHKQLIRFLKRLDRNLWGLAGLNSCPVKECNQSTLENFLERLKTIMDEKDSKCSS    4.93 nM
IL-4TM-A104C (R121D/Y124D/A104C) PEGylated with 40 kDa branched maleimide-PEG (ligand, 40 kDa branched maleimide-PEG on Cys 104 (numbered according to wild type IL-4)) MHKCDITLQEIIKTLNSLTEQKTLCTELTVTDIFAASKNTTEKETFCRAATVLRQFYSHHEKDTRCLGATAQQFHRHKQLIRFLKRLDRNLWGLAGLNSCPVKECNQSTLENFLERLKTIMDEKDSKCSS    8 nM
IL-4TM-N38C (R121D/Y124D/N38C) PEGylated with 40 kDa branched maleimide-PEG (ligand, 40 kDa branched maleimide-PEG on Cys 38 (numbered according to wild type IL-4)) MHKCDITLQEIIKTLNSLTEQKTLCTELTVTDIFAASKCTTEKETFCRAATVLRQFYSHHEKDTRCLGATAQQFHRHKQLIRFLKRLDRNLWGLAGLNSCPVKEANQSTLENFLERLKTIMDEKDSKCSS    2.43 nM
PEGylated T13D-N38C with 40 kDa branched PEG (IL4-RE-T13D-N38C) (ligand, 40 kDa branched maleimide-PEG on Cys 38 (numbered according to wild type IL-4)) MHKCDITLQEIIKDLNSLTEQKTLCTELTVTDIFAASKCTTEKETFCRAATVLRQFYSHHEKDTRCLGATAQQFHRHKQLIRFLKRLDRNLWGLAGLNSCPVKEANQSTLENFLERLKTIMDEKDSKCSS    3.28 nM
IL-4RA (IL-4 double mutein R121D/Y124D, unPEGylated) (ligand, also called BAY 16-9996; IL-4DM) MHKCDITLQEIIKTLNSLTEQKTLCTELTVTDIFAASKNTTEKETFCRAATVLRQFYSHHEKDTRCLGATAQQFHRHKQLIRFLKRLDRNLWGLAGLNSCPVKEANQSTLENFLERLKTIMDEKDSKCSS    1.07 nM
